Taken from patent US9018213B2.

# TARGET ENTITY: D2 receptor (Rattus norvegicus (Rat))
# Sequence (P61169 whole entry): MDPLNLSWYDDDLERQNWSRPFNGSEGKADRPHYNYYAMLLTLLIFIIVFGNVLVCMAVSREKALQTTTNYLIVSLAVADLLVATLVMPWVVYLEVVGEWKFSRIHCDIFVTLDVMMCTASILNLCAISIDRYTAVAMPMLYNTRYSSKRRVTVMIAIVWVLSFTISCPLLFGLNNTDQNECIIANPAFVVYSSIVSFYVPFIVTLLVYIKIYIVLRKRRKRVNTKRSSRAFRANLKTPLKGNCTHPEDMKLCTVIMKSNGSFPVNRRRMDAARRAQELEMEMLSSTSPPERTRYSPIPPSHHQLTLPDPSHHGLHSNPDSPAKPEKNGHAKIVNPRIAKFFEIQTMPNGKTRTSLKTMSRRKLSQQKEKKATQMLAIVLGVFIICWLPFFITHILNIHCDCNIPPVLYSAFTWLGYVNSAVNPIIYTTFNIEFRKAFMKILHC
# TEST SUMMARY: D2 receptor inhibition binding assay (3H-Spiperone)
MEASURED PARAMETER: IC50 (nM)
One number for each entry, in nM.

# ITEM SMILES, IC50, nM
records = [
    ("O=c1oc2c(Cl)c(OCCCCN3CCC(c4noc5cc(F)ccc45)CC3)ccc2c2c1CCC2", 8.1),
    ("COc1ccccc1N1CCN(CCCCOc2ccc3c4c(c(=O)oc3c2)CCCC4)CC1", 3.6),
]

I'm hoping you can list IC50 for every compound here, please.
1. O=c1oc2c(Cl)c(OCCCCN3CCN(c4nsc5ccccc45)CC3)ccc2c2c1CCC2
2. COc1ccccc1N1CCN(CCCCOc2ccc3c4c(c(=O)oc3c2)CCC4)CC1

1: 10.1; 2: 2.1

Return reported IC50 for target or system D2 receptor (Rattus norvegicus (Rat)), item O=c1oc2cc(OCCCN3CCC(c4noc5cc(F)ccc45)CC3)ccc2c2c1CCC2 . 5.6

* * *

Record form. Attribute: pIC50. Fill in for each entry.
# TARGET ENTITY: 5HT2C receptor (Rattus norvegicus (Rat))
# Sequence (P08909 33-460): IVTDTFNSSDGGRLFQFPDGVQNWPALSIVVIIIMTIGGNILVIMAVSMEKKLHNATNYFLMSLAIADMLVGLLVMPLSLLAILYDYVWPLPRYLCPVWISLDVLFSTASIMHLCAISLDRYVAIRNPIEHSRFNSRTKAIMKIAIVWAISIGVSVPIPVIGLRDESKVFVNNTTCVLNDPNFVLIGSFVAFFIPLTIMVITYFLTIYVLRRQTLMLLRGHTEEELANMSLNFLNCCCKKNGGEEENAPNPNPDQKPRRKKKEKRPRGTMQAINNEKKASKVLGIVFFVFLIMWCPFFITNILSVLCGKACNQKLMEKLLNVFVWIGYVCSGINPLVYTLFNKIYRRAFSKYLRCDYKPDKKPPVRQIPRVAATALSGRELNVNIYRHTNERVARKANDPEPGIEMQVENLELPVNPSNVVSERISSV
One number for each entry, as −log10 of the molar value.

The following compounds have reported results that may help.
# ITEM SMILES, MEASURED PARAMETER, RECORDED MEASUREMENT
rows = [
    ("COc1ccccc1N1CCN(CCCCOc2ccc3c4c(c(=O)oc3c2)CCCC4)CC1", "pIC50", 5.95),
    ("O=c1oc2c(Cl)c(OCCCCN3CCN(c4nsc5ccccc45)CC3)ccc2c2c1CCC2", "pIC50", 5.83),
    ("O=c1oc2cc(OCCCN3CCC(c4noc5cc(F)ccc45)CC3)ccc2c2c1CCC2", "pIC50", 5.94),
    ("COc1ccccc1N1CCN(CCCCOc2ccc3c4c(c(=O)oc3c2)CCC4)CC1", "pIC50", 5.89),
]

Let's switch to this compound now.
Return reported pIC50 for target or system 5HT2C receptor (Rattus norvegicus (Rat)), item O=c1oc2c(Cl)c(OCCCCN3CCC(c4noc5cc(F)ccc45)CC3)ccc2c2c1CCC2 . 5.72

* * *

# Test system: mice of Kunming breed
# TEST SUMMARY: MK-801 induced high activity
# Format: in vivo
# SETTINGS: Mus musculus; po, mice
MEASURED PARAMETER: ED50 (mg/kg)
One number for each entry, in mg/kg.

# ITEM SMILES, ED50 (mg/kg)
measured = [
    ("COc1ccccc1N1CCN(CCCCOc2ccc3c4c(c(=O)oc3c2)CCC4)CC1", 2.05),
]

I'm hoping you can list ED50 for every compound here, please.
1. O=C1CCc2ccc(OCCCCN3CCN(c4cccc(Cl)c4Cl)CC3)cc2N1
2. O=c1oc2c(Cl)c(OCCCCN3CCN(c4nsc5ccccc45)CC3)ccc2c2c1CCC2
3. O=c1oc2c(Cl)c(OCCCCN3CCC(c4noc5cc(F)ccc45)CC3)ccc2c2c1CCC2

[0.12, 0.82, 1.25]

* * *

Record form. Attribute: Scoring (value), apomorphine induced clambering. Fill in for each entry.
# System: KM mice
# TEST SUMMARY: Apomorphine induced clambering assay of mice
# Assay type: in vivo
# SETTINGS: dosage 0.1 mg/kg, x ± s, n = 10
# Description: Apomorphine Induced Clambering Assay of Mice Healthy KM mice (male, with body weight of 18-22 g) were provided by Qinglongshan Animal Cultivation Center, Nanjing. […] After 5 min of adaptation, the behaviors of the mice at 10-11, 20-21, and 30-31 min after the injection of apomorphine were observed and scored. Scoring criteria: 4 paws on the floor was scored as 0; 2 forepaws on the cage was scored as 1; and 4 paws on the cage was scored as 2.
One number for each entry.

The following molecules have reported results that may help.
# ITEM SMILES, RECORDED MEASUREMENT
rows = [
    ("Cc1cc2c(s1)Nc1ccccc1N=C2N1CCN(C)CC1", 5.00),
    ("O=c1oc2c(Cl)c(OCCCCN3CCN(c4nsc5ccccc45)CC3)ccc2c2c1CCC2", 5.30),
]

I'm hoping you can list Scoring (value), apomorphine induced clambering for every molecule here, please.
1. O=c1oc2c(Cl)c(OCCCCN3CCC(c4noc5cc(F)ccc45)CC3)ccc2c2c1CCC2
2. Cc1nc2n(c(=O)c1CCN1CCC(c3noc4cc(F)ccc34)CC1)CCCC2
3. O=c1oc2cc(OCCCN3CCC(c4noc5cc(F)ccc45)CC3)ccc2c2c1CCC2

1. 4.75
2. 1.80
3. 4.60

State its Scoring (value), apomorphine induced clambering: O=C(CCCN1CCC(O)(c2ccc(Cl)cc2)CC1)c1ccc(F)cc1 4.50

* * *

# TARGET ENTITY: UniProt:P19327
# Sequence (P19327 whole entry): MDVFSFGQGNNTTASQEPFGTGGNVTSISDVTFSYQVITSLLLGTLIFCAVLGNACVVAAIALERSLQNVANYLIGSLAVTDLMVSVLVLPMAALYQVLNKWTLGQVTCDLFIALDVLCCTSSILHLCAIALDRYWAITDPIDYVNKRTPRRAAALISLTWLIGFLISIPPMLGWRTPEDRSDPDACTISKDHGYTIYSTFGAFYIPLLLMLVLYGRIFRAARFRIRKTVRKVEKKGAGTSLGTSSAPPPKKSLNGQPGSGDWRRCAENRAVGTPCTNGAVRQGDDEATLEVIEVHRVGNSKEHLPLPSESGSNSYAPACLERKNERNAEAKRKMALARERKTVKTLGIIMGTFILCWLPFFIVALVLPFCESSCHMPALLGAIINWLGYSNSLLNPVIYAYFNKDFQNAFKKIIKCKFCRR
# TEST SUMMARY: 5HT1A receptor binding assay (3H-8-OH-DPAT)
# SETTINGS: test compound final concentration 10^-5 M
MEASURED PARAMETER: inhibition at 10 µM (%)
Answers are plain numbers, in %.

# COMPOUND, UNITS LABEL, inhibition at 10 µM
measured = [
    ("O=c1oc2cc(OCCCCN3CCN(c4ccc(F)cc4)CC3)ccc2c2c1CCC2 [Compound 9]", "%", 104),
    ("Cc1c(OCCCCN2CCN(c3nsc4ccccc34)CC2)ccc2c3c(c(=O)oc12)CCC3 [Compound 12]", "%", 104),
]

I'm hoping you can list inhibition at 10 µM for every compound here, please.
1. Cc1cccc(N2CCN(CCCOc3ccc4c5c(c(=O)oc4c3)CCC5)CC2)c1C [Compound 1]
2. COc1ccccc1N1CCN(CCCCOc2ccc3c4c(c(=O)oc3c2Cl)CCC4)CC1 [Compound 13]
3. O=c1oc2cc(OCCCN3CCN(c4cccc(C(F)(F)F)c4)CC3)ccc2c2c1CCC2 [Compound 3]
4. COc1ccccc1N1CCN(CCCCOc2ccc3c4c(c(=O)oc3c2C)CCCC4)CC1 [Compound 20]
5. O=c1oc2cc(OCCCN3CCN(c4cccc(Cl)c4Cl)CC3)ccc2c2c1CCC2 [Compound 2]

103
106
104
100
65.8

I'm hoping you can list inhibition at 10 µM for every compound here, please.
1. O=c1oc2cc(OCCCCN3CCC(c4noc5cc(F)ccc45)CC3)ccc2c2c1CCC2 [Compound 10]
2. COc1ccccc1N1CCN(CCCOc2ccc3c4c(c(=O)oc3c2)CCC4)CC1 [Compound 4]
3. COc1ccc(N2CCN(CCCCOc3ccc4c5c(c(=O)oc4c3)CCC5)CC2)cc1 [Compound 8]
4. O=c1oc2cc(OCCCCN3CCC(c4noc5cc(F)ccc45)CC3)c(Cl)cc2c2c1CCC2 [Compound 16]
5. COc1ccccc1N1CCN(CCCCOc2cc3oc(=O)c4c(c3cc2Cl)CCC4)CC1 [Compound 17]

42.5
116
62.8
55.3
115

I'm hoping you can list inhibition at 10 µM for every compound here, please.
1. O=c1oc2cc(OCCCCN3CCC(c4noc5cc(F)ccc45)CC3)ccc2c2c1CCCC2 [Compound 18]
2. COc1ccccc1N1CCN(CCCCOc2ccc3c4c(c(=O)oc3c2C)CCC4)CC1 [Compound 11]
3. COc1ccccc1N1CCN(CCCOc2ccc3c4c(c(=O)oc3c2C)CCC4)CC1 [Compound 6]

46.6
106
95.5

* * *

# System: mice of Kunming breed
# TEST SUMMARY: MK-801 induced high activity
# Assay type: in vivo
# SETTINGS: Mus musculus; po, mice
Record form. Attribute: ED50. Fill in for each entry.
Numbers only, in mg/kg.

The following compounds have reported results that may help.
# COMPOUND, UNITS LABEL, RECORDED MEASUREMENT
records = [
    ("O=C1Cc2cc(CCN3CCN(c4nsc5ccccc45)CC3)c(Cl)cc2N1 [ziprasidone]", "mg/kg", 0.56),
    ("COc1ccccc1N1CCN(CCCCOc2ccc3c4c(c(=O)oc3c2)CCCC4)CC1 [Compound 19]", "mg/kg", 2.35),
]

State its ED50: O=c1oc2cc(OCCCN3CCC(c4noc5cc(F)ccc45)CC3)ccc2c2c1CCC2 [Compound 5] 0.35

* * *

# TARGET ENTITY: 5HT2A receptor (Rattus norvegicus (Rat))
# Sequence (P14842 whole entry): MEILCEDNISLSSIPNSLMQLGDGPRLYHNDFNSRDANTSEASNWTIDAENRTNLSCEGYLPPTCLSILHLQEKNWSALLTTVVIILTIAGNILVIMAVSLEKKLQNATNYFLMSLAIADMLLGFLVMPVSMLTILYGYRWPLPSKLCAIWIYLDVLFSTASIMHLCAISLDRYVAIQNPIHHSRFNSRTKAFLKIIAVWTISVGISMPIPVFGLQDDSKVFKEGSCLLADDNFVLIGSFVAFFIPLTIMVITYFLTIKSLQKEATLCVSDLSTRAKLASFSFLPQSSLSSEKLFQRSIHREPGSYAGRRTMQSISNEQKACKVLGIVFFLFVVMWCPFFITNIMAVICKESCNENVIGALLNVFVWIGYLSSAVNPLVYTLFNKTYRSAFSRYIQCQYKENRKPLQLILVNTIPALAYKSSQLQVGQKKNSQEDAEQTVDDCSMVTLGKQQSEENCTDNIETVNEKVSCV
# TEST SUMMARY: 5HT2A receptor binding assay ([3H]-Ketanserin)
# SETTINGS: read-out: 5HT2A inhibition %
Kind request: treat 90% as inclusive, so inhibition at 10 µM at 90% or higher is class 1, anything lower is class 0.

# ITEM SMILES, DISCRETE LABEL
records = [
    ("COc1ccccc1N1CCN(CCCCOc2ccc3c4c(c(=O)oc3c2Cl)CCC4)CC1", "class 1"),
]

Exam item: decide whether the reported inhibition at 10 µM for O=c1oc2cc(OCCCCN3CCN(c4ccc(F)cc4)CC3)ccc2c2c1CCC2 is at least 90%. class 1

Exam item: decide whether the reported inhibition at 10 µM for O=c1oc2cc(OCCCCN3CCC(c4noc5cc(F)ccc45)CC3)ccc2c2c1CCCC2 is at least 90%. class 1

Exam item: decide whether the reported inhibition at 10 µM for O=c1oc2cc(OCCCN3CCN(c4cccc(C(F)(F)F)c4)CC3)ccc2c2c1CCC2 is at least 90%. class 0

Exam item: decide whether the reported inhibition at 10 µM for COc1ccccc1N1CCN(CCCCOc2ccc3c4c(c(=O)oc3c2C)CCC4)CC1 is at least 90%. class 1

Exam item: decide whether the reported inhibition at 10 µM for COc1ccccc1N1CCN(CCCOc2ccc3c4c(c(=O)oc3c2C)CCC4)CC1 is at least 90%. class 0

Exam item: decide whether the reported inhibition at 10 µM for COc1ccccc1N1CCN(CCCOc2ccc3c4c(c(=O)oc3c2)CCC4)CC1 is at least 90%. class 1
